We begin with a simple list: items and their reported % double-positive cells vs WT.
- measurement-target: T1, mTfR-1 P332A on Expi293 cells (mouse, UniProt Q62351 1-763)
- T1 construct: whole, on cells
- T1 sequence (Q62351 whole entry P332A): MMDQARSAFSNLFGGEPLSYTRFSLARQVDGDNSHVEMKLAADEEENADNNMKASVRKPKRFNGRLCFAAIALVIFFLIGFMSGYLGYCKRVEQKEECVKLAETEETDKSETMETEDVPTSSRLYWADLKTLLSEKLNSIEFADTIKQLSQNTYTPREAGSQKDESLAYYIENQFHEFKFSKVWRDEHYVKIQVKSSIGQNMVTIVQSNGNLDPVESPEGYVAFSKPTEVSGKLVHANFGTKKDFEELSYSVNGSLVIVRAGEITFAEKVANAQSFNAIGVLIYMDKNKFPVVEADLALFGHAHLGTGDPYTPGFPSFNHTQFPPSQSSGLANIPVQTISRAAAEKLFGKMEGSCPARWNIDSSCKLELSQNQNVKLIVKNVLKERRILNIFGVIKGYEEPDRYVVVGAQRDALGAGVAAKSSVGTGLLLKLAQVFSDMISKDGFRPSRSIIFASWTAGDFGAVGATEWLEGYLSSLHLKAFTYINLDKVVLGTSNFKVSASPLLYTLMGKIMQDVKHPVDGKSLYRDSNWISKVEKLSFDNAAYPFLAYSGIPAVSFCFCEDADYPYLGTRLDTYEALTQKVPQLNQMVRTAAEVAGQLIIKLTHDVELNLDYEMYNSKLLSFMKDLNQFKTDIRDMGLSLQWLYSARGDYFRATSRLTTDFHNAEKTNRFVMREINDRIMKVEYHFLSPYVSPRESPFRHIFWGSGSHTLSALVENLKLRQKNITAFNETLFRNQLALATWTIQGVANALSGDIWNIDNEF
- assay-procedure: FACS, transfected Expi293 cells

- binder: "8D3 antibody (anti-mouse TfR-1 control; 8D3-hFc formatted antibody) (antibody, V domains shown) VH: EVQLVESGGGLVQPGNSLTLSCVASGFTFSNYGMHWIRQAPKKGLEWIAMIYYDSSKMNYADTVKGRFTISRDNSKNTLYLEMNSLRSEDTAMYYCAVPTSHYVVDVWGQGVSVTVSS VL: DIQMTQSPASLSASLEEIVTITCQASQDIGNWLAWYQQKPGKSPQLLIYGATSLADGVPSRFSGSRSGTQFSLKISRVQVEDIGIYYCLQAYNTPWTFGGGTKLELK"
  % double-positive cells vs WT (%): 57
- binder: "Clone C VNAR-hFc fusion (Fc fusion, not shown: a dimerising Fc or GST, bivalent VNAR-Fc; also called Clone C-hFc) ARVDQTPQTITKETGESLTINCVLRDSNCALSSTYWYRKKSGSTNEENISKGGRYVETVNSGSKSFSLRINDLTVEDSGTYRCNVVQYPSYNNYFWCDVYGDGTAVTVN"
  % double-positive cells vs WT (%): 257
- binder: "Clone C variant 18 VNAR-hFc (Fc fusion, not shown: a dimerising Fc or GST, also called Clone C v18; Clone C var; 18) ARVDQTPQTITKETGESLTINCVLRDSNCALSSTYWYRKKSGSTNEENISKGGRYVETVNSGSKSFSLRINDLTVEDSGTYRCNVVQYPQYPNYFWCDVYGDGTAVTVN"
  % double-positive cells vs WT (%): 218
- binder: "Clone C variant 13 VNAR-hFc (Fc fusion, not shown: a dimerising Fc or GST, also called Clone C v13; Clone C var; 13) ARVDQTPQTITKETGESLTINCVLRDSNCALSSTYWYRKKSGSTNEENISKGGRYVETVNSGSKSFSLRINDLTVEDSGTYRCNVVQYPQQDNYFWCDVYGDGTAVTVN"
  % double-positive cells vs WT (%): 79
